Ref: ChEMBL document CHEMBL2203155

Record type: EC50 measurement. Applies to: Tyrosine-protein kinase JAK1 (Homo sapiens)
endpoint name: EC50 (µM)

{"compound": "CC(C)CS(=O)(=O)NCc1nc2cnc3[nH]ccc3c2n1C1CCN(CCC#N)CC1", "readout unit": "µM", "value reported": 1.2}
{"compound": "N#CCCN1CCC(n2c(CC3CCOCC3)nc3cnc4[nH]ccc4c32)CC1", "readout unit": "µM", "value reported": 2.6}
{"compound": "N#CCCN1CCC(n2c(CC3CCCO3)nc3cnc4[nH]ccc4c32)CC1 (racemic)", "readout unit": "µM", "value reported": 1.3}
{"compound": "CS(=O)(=O)NCCc1nc2cnc3[nH]ccc3c2n1C1CC2CCC1C2 (racemic)", "readout unit": "µM", "value reported": 0.05}
{"compound": "CCCc1nc2cnc3[nH]ccc3c2n1C1CCN(CCC#N)CC1", "readout unit": "µM", "value reported": 0.275}

====

# target system: Cytochrome P450 2C19 (Homo sapiens)
# Sequence (P33261 whole entry): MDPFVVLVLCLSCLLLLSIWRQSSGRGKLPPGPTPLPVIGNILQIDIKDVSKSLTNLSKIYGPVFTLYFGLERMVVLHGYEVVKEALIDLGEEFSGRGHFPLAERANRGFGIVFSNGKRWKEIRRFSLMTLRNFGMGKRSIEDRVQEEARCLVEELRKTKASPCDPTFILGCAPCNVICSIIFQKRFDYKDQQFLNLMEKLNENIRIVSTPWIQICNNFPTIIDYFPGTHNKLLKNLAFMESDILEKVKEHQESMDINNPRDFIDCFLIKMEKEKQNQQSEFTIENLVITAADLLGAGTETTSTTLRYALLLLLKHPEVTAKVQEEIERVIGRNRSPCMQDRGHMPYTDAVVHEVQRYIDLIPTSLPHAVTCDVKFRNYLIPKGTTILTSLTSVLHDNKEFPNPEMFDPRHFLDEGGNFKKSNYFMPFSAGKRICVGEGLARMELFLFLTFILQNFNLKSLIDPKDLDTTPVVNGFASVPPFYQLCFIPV
pIC50: −log10 of the molar value.

{"chemical structure": "CS(=O)(=O)NCc1nc2cnc3[nH]ccc3c2n1[C@@H]1C[C@H]2CC[C@@H]1C2", "pIC50": "< 5.00"}

====

# target system: Tyrosine-protein kinase JAK1 (Homo sapiens)
# Sequence (P23458 whole entry): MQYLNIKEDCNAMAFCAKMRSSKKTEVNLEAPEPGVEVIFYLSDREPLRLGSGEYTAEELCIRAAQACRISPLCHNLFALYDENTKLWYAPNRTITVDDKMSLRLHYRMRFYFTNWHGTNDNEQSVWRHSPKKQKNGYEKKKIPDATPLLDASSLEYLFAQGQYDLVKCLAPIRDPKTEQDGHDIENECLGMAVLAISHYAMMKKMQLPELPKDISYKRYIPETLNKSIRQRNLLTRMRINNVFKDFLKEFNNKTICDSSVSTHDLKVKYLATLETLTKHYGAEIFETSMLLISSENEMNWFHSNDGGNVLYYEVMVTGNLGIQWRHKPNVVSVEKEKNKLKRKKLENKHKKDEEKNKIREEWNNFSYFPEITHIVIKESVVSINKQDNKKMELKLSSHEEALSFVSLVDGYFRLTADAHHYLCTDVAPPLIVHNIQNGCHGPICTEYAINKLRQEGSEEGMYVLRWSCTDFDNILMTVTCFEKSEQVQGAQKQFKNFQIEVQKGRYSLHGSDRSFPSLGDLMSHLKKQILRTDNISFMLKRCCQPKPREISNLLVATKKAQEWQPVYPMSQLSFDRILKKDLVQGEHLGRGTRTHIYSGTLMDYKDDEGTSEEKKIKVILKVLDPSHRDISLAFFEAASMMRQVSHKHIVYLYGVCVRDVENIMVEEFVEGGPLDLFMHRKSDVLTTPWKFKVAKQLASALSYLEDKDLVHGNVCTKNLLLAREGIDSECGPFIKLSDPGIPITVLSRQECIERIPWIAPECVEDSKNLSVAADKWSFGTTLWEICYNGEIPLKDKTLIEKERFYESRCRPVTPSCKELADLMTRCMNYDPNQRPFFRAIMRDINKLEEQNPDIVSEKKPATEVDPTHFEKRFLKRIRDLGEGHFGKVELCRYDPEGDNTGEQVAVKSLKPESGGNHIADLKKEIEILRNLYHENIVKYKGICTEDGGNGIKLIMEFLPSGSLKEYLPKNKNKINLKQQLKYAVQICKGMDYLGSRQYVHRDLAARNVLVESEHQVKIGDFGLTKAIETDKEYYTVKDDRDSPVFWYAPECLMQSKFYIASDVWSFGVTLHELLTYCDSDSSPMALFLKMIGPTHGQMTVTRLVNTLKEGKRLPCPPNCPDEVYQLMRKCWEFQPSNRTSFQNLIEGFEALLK
# Type: cell-based, TF-1
endpoint name: EC50

{"chemical structure": "CC(=O)NCCc1nc2cnc3[nH]ccc3c2n1C1CCN(CCC#N)CC1", "endpoint name": "EC50", "value reported": "> 6.5 µM"}
{"chemical structure": "CC(=O)NCc1nc2cnc3[nH]ccc3c2n1C1CCN(CCC#N)CC1", "endpoint name": "EC50", "value reported": "> 3.8 µM"}
{"chemical structure": "CS(=O)(=O)NCCc1nc2cnc3[nH]ccc3c2n1C1CCN(CCC#N)CC1", "endpoint name": "EC50", "value reported": "> 6 µM"}
